assay: The drug is tested on Lactobacillus paracasei strain: ATCC27092 for biotransformation under anaerobic condition. The drug concentrations were measured over 6 timepoints collected between 0 and 12 hours of incubation by liquid-chromatography-coupled mass spectrometry (LC–MS); format: ADME; design: dose 5 uM, timepoint 0, 1.5, 3, 6, 9, 12 hours; conditions: lacticaseibacillus paracasei, 5 µM

COMPOUND	Bacterial Biotransformation
CO[C@H]1C[C@@H]2CC[C@@H](C)[C@@](O)(O2)C(=O)C(=O)N2CCCC[C@H]2C(=O)O[C@H]([C@H](C)C[C@@H]2CC[C@@H](O)[C@H](OC)C2)CC(=O)[C@H](C)/C=C(\C)[C@@H](O)[C@@H](OC)C(=O)[C@H](C)C[C@H](C)/C=C/C=C/C=C/1C [SIROLIMUS]	Compound NOT metabolized
C[C@H]1C[C@H]2[C@@H]3CCC4=CC(=O)C=C[C@]4(C)[C@@]3(F)[C@@H](O)C[C@]2(C)[C@@]1(O)C(=O)CO [BETAMETHASONE]	Compound NOT metabolized
C[C@]12CCC(=O)C=C1CC[C@@H]1[C@@H]2C(=O)C[C@@]2(C)[C@H]1CC[C@]2(O)C(=O)CO [CORTISONE]	Compound NOT metabolized
